- Assay text: refractive index (Na D-line) (dimensionless)
- Condition label: 298.15 K; 101.33 kPa; Liquid; Standard Abbe refractometry
Parameter: refractive index
Please give only the number in your answer, with no unit.

Kindly note the recorded refractive index for CCCCCCCCCCCCCCCC [hexadecane] , which is 1.43232

Kindly note the recorded refractive index for c1ccsc1 [thiophene] , which is 1.5253

Kindly note the recorded refractive index for CCCCCCC [heptane] , which is 1.38517

Kindly note the recorded refractive index for CCOS(=O)(=O)[O-].CCn1cc[n+](C)c1 [1-ethyl-3-methylimidazolium ethyl sulfate] , which is 1.47903

Kindly note the recorded refractive index for CCCCCC [hexane] , which is 1.37287

Kindly note the recorded refractive index for CCCCCCCCCCCC [dodecane] , which is 1.42011
